Tested on: Escherichia coli TOP10;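 also: peptides expressed intracellularly from a pBAD plasmid library in pooled LB shake-flask culture, induced with 0.3% L-arabinose, DNA abundance read by NGS, three biological replicates, DESeq2 with apeglm shrinkage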
experimental protocol: shrunken log2 fold change of peptide-encoding DNA abundance (4.5 h post-induction vs induction); higher = less antimicrobial activity (less host growth inhibition)
condition info: time post-induction: 4.5 h; library: site-saturation at positions 5, 18, 19, 20
If the reported shrunken log2 fold change equals or exceeds 0.03, assign y. If not, assign n.

residue string	answer label
RRIRLRPPRLPRPRPRPRFCPRP	n
RRIRIRPPRLPRPRPRPWRDPRP	n
RRIRERPPRLPRPRPRPQLPPRP	n
RRIRMRPPRLPRPRPRPLAEPRP	y
RRIRVRPPRLPRPRPRPQIIPRP	n
RRIRWRPPRLPRPRPRPSWFPRP	n
RRIRFRPPRLPRPRPRPPIYPRP	n
RRIRLRPPRLPRPRPRPQRRPRP	y
RRIRMRPPRLPRPRPRPDQKPRP	n
RRIRLRPPRLPRPRPRPLMYPRP	n
RRIRPRPPRLPRPRPRPHLGPRP	y
RRIRGRPPRLPRPRPRPPENPRP	y
RRIRVRPPRLPRPRPRPHLIPRP	n
RRIRPRPPRLPRPRPRPTCQPRP	n
RRIRMRPPRLPRPRPRPKQRPRP	y
RRIRKRPPRLPRPRPRPHRPPRP	y
RRIRTRPPRLPRPRPRPEHQPRP	y
RRIRRRPPRLPRPRPRPTAGPRP	y
RRIRTRPPRLPRPRPRPMPAPRP	y
RRIRCRPPRLPRPRPRPVVHPRP	n
RRIRFRPPRLPRPRPRPPEGPRP	y
RRIRGRPPRLPRPRPRPFFCPRP	y
RRIRTRPPRLPRPRPRPTHDPRP	y
RRIRRRPPRLPRPRPRPPQVPRP	y
RRIRVRPPRLPRPRPRPNANPRP	y
RRIRGRPPRLPRPRPRPTLQPRP	y
RRIRLRPPRLPRPRPRPMKHPRP	n
RRIRPRPPRLPRPRPRPLTEPRP	y
RRIRVRPPRLPRPRPRPSTQPRP	n
RRIRYRPPRLPRPRPRPFHAPRP	y
RRIRLRPPRLPRPRPRPKPYPRP	n
RRIRIRPPRLPRPRPRPAAAPRP	y
RRIRYRPPRLPRPRPRPADAPRP	y
RRIRGRPPRLPRPRPRPFHHPRP	n
RRIRWRPPRLPRPRPRPPGVPRP	y
RRIRNRPPRLPRPRPRPVTQPRP	y
RRIRDRPPRLPRPRPRPEGLPRP	y
RRIRSRPPRLPRPRPRPKPMPRP	y
RRIRGRPPRLPRPRPRPILLPRP	n
RRIRDRPPRLPRPRPRPALRPRP	y
RRIRDRPPRLPRPRPRPCCEPRP	y
RRIRWRPPRLPRPRPRPSGQPRP	n
RRIRTRPPRLPRPRPRPCMDPRP	n
RRIRARPPRLPRPRPRPECRPRP	y
RRIRSRPPRLPRPRPRPPYPPRP	y
RRIRMRPPRLPRPRPRPTGKPRP	y
RRIRPRPPRLPRPRPRPTTMPRP	n
RRIRMRPPRLPRPRPRPCVDPRP	y
RRIRNRPPRLPRPRPRPCRPPRP	n
RRIRRRPPRLPRPRPRPPDVPRP	y
RRIRHRPPRLPRPRPRPQQMPRP	n
RRIRNRPPRLPRPRPRPYVKPRP	n
RRIRRRPPRLPRPRPRPFERPRP	n
RRIRKRPPRLPRPRPRPTHFPRP	n
RRIRQRPPRLPRPRPRPANVPRP	n
RRIRPRPPRLPRPRPRPPIRPRP	y
RRIRIRPPRLPRPRPRPRKTPRP	y
RRIRSRPPRLPRPRPRPRAEPRP	y
RRIRARPPRLPRPRPRPFHCPRP	y
RRIRFRPPRLPRPRPRPACFPRP	y
RRIRYRPPRLPRPRPRPCIDPRP	n
RRIRTRPPRLPRPRPRPESTPRP	n
